Molecular target: Serine/threonine-protein kinase pim-2 (Homo sapiens, UniProt Q9P1W9)
Sequence (Q9P1W9 whole entry): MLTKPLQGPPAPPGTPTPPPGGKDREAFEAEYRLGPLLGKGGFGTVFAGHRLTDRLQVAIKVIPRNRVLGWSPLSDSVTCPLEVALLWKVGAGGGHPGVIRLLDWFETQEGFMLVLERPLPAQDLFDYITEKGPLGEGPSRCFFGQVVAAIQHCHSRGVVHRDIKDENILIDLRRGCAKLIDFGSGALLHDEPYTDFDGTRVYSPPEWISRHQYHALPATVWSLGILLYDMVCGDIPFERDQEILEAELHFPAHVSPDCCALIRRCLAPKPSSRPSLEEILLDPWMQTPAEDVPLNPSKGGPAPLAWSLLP
result_type: IC50 (nM)
The response must be a number in nM with no trailing unit.

-- ask What IC50 appears in the records for this molecule with Serine/threonine-protein kinase pim-2 (Homo sapiens, UniProt Q9P1W9)? CN1CCCN(c2cncc(-c3cccc(C=Cc4nnn[nH]4)c3)n2)CC1
-- reply 160
